For each record, write down the corresponding cell viability.
test system: HCT116; experiment: cell viability (CellTiter-Glo) relative to plate median (fraction of plate median); higher = more viable cells; conditions: 5 µM; treatment time 24 h; reporter: TCF4/Wnt

The cases that follow already have their cell viability on record.
CC(=O)[C@H]1CC[C@H]2[C@@H]3CC=C4C[C@@H](OC(=O)CCC(=O)O)CC[C@]4(C)[C@H]3CC[C@]12C ... 1.01
C[C@]1(OC(=O)/C=C/c2ccccc2)C[C@@H](O)[C@]2(O)C=CO[C@@H](O[C@@H]3O[C@H](CO)[C@@H](O)[C@H](O)[C@H]3O)[C@@H]21 ... 1.02
COC(=O)CC1C(C)(C)C(OC(C)=O)[C@@H]2[C@@H](OC(C)=O)[C@]34O[C@@]2(O)[C@]1(C)C3CC[C@]1(C)C4=CC(=O)O[C@H]1c1ccoc1 (some centres not stated) ... 1.02
OC[C@@H](O)[C@@H](O[C@@H]1O[C@H](CO)[C@@H](O)[C@H](O)[C@H]1O)[C@H](O)[C@@H](O)CO ... 1.01
CC(C)CCCC(C)C1CCC2C3CCC4CCCCC4(C)C3CCC12C (configuration not stated) ... 0.997
O=C(O)C1CCCNC1 (configuration not stated) ... 1

Memo: `COc1ccc(CCC(=O)c2c(O)cc(O[C@@H]3O[C@H](CO)[C@@H](O)[C@H](O)[C@H]3O[C@@H]3O[C@@H](C)[C@H](O)[C@@H](O)[C@H]3O)cc2O)cc1O` , reported cell viability: 1.01

* * *

test system: DLD1; experiment: TCF/Wnt firefly luciferase reporter signal relative to plate median (fraction of plate median); higher = higher Wnt reporter signal; conditions: 5 µM; treatment time 24 h; reporter: 7TFP
measurement label: TCF/Wnt firefly luciferase reporter signal
Answers are plain numbers.

C=CC(C1=CC(=O)C(OC)=CC1=O)c1ccc(OC)cc1 (stereo not drawn) ... 0.988
COc1ccc2ccc(=O)oc2c1 ... 0.973
COc1cc2c3cc1Oc1cc(ccc1O)C[C@@H]1c4c(cc(OC)c(O)c4Oc4ccc(cc4)C[C@@H]3N(C)CC2)CC[N+]1(C)C ... 0.977
CCCCC(=O)Oc1ccccc1C(=O)O ... 1
CC(C)=CCOc1cc2oc(=O)ccc2cc1O ... 1

Hello, I would appreciate it if you could give TCF/Wnt firefly luciferase reporter signal for each entry below.
1. CC[C@H](C)C(=O)O[C@H]1C[C@H](O)C=C2C=C[C@H](C)[C@H](CC[C@@H](O)C[C@@H](O)CC(=O)O)[C@H]21
2. CCOc1ccc(C(=O)c2cc(O)c(OC)c(OC)c2O)cc1

Response given:
[1.04, 1.09]

* * *

test system: SW480; assay: TCF/Wnt firefly luciferase reporter signal relative to plate median (fraction of plate median); higher = higher Wnt reporter signal; settings: 5 µM; treatment time 24 h; reporter: 7TFP
measurement label: TCF/Wnt firefly luciferase reporter signal
Numbers only.

CC(C)NNC(=O)c1ccncc1 ... 1.01
CC1CCC(C(C)C)C(O)C1 (stereo not drawn) ... 1.01

Measured TCF/Wnt firefly luciferase reporter signal, `Cc1ccc(S(=O)(=O)NC(=O)NN2CCCCCC2)cc1` : 0.998

* * *

tested on: HCT116; experiment: cell viability (CellTiter-Glo) relative to plate median (fraction of plate median); higher = more viable cells; settings: 5 µM; treatment time 24 h; reporter: TCF4/Wnt
measurement label: cell viability
One number for each entry.

CC(C)Cc1ccc(C(C)C(=O)O)cc1 (stereo not given) ... 1.04
COC(=O)Nc1nc2cc([S+]([O-])c3ccccc3)ccc2[nH]1 (stereo not given) ... 0.869
COC(=O)C[C@H]1C(C)(C)C(=O)[C@@H]2CC3C4=CC(=O)O[C@@H](c5ccoc5)[C@]4(C)CC[C@@H]3[C@@]1(C)C2=O (stereo not given in full) ... 1.01
COc1ccc2c(c1)OC[C@@H](Cc1ccc(OC)c(OC)c1)[C@H]2O ... 1.06
CN(C)C(=N)NC(=N)N ... 1
CN1C(=O)CC[C@H]1c1cccnc1 ... 1.1

For each of the molecules below, state cell viability.
1. COc1cc2ccc(=O)oc2cc1O
2. Cc1c(C(N)=O)cc([N+](=O)[O-])cc1[N+](=O)[O-]
3. CC(C)CCCC(C)N (stereo not given)
4. CC(C)(S)[C@@H](N)C(=O)O
5. O=C(O)c1c[nH]c2ccccc12
6. CC1=CC(=O)C(C(C)C)=CC1=O
7. CCn1cc(C(=O)O)c(=O)c2cc(F)c(N3CCNC(C)C3)c(F)c21 (stereo not given)

Response given:
[1.09, 0.926, 0.929, 0.956, 0.868, 1.03, 1.05]

# batch size: 4; output cell viability per entry
1. CC(C)=CCOc1cc2oc(=O)ccc2cc1O
2. CN(C)CCOC(C)(c1ccccc1)c1ccccn1 (stereo not given)
3. CO/N=C(\C(=O)N[C@@H]1C(=O)N2C(C(=O)O)=C(COC(N)=O)CS[C@H]12)c1ccco1
4. CCCCNS(=O)(=O)c1ccccc1 [N-butylbenzenesulphonamide (AB2)]

Response given:
[1.19, 0.947, 0.949, 1]

Return reported cell viability values for all items listed beneath this line.
1. Cc1cc(NS(=O)(=O)c2ccc(N)cc2)no1
2. CN(C(=O)C(Cl)Cl)c1ccc(OC(=O)c2ccco2)cc1
3. COc1ccc(/C=C/C(=O)c2ccc(O)cc2O)cc1OC

Response given:
[1.15, 0.879, 1.04]
